Assay: Acute oral toxicity (ALD50)
Type: in vivo
Details: mouse, in vivo, po, mice, aqueous solution; read-out: 7-Day ALD50
I'd appreciate it if you could supply LD50 at 168 h values for the items below.

Take a look at these entries with their results.
CCCCCCCNc1cc[n+](CCCCCCCCCCCC[n+]2ccc(NCCCCCCC)cc2)cc1    315 mg/kg
CCCCCCCNc1cc[n+](CCCCCCCC[n+]2ccc(NCCCCCCC)cc2)cc1    625 mg/kg
CCCCCCCCNc1cc[n+](CCCCCCCCCC[n+]2ccc(NCCCCCCCC)cc2)cc1 [10A,B]    > 1000 mg/kg

Enquiry: Endpoint output: LD50 at 168 h of CCCCCCCNc1cc[n+](CCCCCCCCC[n+]2ccc(NCCCCCCC)cc2)cc1 . Value?
Return: 500 mg/kg

----------
Test system: young adult male Swiss-Webster strain albino mice
Test: Acute oral toxicity (ALD50)
Type: in vivo
Conditions: 500 mg/kg oral, aqueous solution
Quantity: Mortality 24 Hrs

Take a look at these entries with their results.
CCCCCCNc1cc[n+](CCCCCCCCCCCCCC[n+]2ccc(NCCCCCC)cc2)cc1 [Example 6]    2/3
CCCCCCCNc1cc[n+](CCCCCCCCCC[n+]2ccc(NCCCCCCC)cc2)cc1 [Example 27]    1/3
CCCCCCCNc1cc[n+](CCCCCCCC[n+]2ccc(NCCCCCCC)cc2)cc1 [Example 23]    1/3
CCCCCCCCNc1cc[n+](CCCCCCCCCC[n+]2ccc(NCCCCCCCC)cc2)cc1 [10A,B]    0/3
CCCCCCCNc1cc[n+](CCCCCCCCC[n+]2ccc(NCCCCCCC)cc2)cc1 [Example 25]    1/3

Dear colleague, could you send me Mortality 24 Hrs for each of the items below? Thanks.
1. CCCCCCCCNc1cc[n+](CCCCCCCC[n+]2ccc(NCCCCCCCC)cc2)cc1 [Example 12]
2. CCCCC(CC)CNc1cc[n+](CCCCCCCCCC[n+]2ccc(NCC(CC)CCCC)cc2)cc1 (centres unmarked) [Example 59]
3. CCCCCCCNc1cc[n+](CCCCCCCCCCCC[n+]2ccc(NCCCCCCC)cc2)cc1 [Example 3]

Return:
1: 1/3; 2: 1/3; 3: 2/3

----------
Tested on: E. coli AB1932-1
Assay: In vitro antibacterial activity, MIC (modified Autotiter method)
Format: cell-based, Escherichia coli
Settings: Escherichia coli, AB19321, 20 h, 18-20 hours at 37° C.; read-out: MIC E. coli AB1932-1
In plain terms, low MIC, meaning strictly below 2 µg/mL, gives y, and everything else gives n.

c1c[n+](CCCC[n+]2ccc(NC3CCCCC3)cc2)ccc1NC1CCCCC1    n
CCCCCCCCCCNc1cc[n+](CCCCCCCCC[n+]2ccc(NCCCCCCCCCC)cc2)cc1    n
CCCCCCNc1cc[n+](CCCCCCCCCCCCCC[n+]2ccc(NCCCCCC)cc2)cc1    y
CCCCCCCCCCCCNc1cc[n+](CCCCCCC[n+]2ccc(NCCCCCCCCCCCC)cc2)cc1    n
CCCCCCCNc1cc[n+](CCCCC[n+]2ccc(NCCCCCCC)cc2)cc1    n
c1c[n+](CCCCCC[n+]2ccc(NC3CCCCC3)cc2)ccc1NC1CCCCC1    n
CCCCCCCCCCNc1cc[n+](CCCCCCCCCCCC[n+]2ccc(NCCCCCCCCCC)cc2)cc1    n
Clc1ccc(Nc2cc[n+](CCCCCCCC[n+]3ccc(Nc4ccc(Cl)cc4)cc3)cc2)cc1 [Example 78B]    y
CCCCCCCNc1cc[n+](CCCCCCCCC[n+]2ccc(NCCCCCCC)cc2)cc1    y
CCCCC(CC)CNc1cc[n+](CCCCCCC[n+]2ccc(NCC(CC)CCCC)cc2)cc1 (stereo not drawn)    n

Enquiry: Hello, is MIC of the following compound strictly smaller than 2 µg/mL? CCCCC(CC)CNc1cc[n+](CCCCCCCCC[n+]2ccc(NCC(CC)CCCC)cc2)cc1 (stereo not drawn)
Return: y

Enquiry: Hello, is MIC of the following compound strictly smaller than 2 µg/mL? CCCCCCNc1cc[n+](CCCCCC[n+]2ccc(NCCCCCC)cc2)cc1
Return: n

Enquiry: Hello, is MIC of the following compound strictly smaller than 2 µg/mL? CCCCCCCCCNc1cc[n+](CCCCCCCCCC[n+]2ccc(NCCCCCCCCC)cc2)cc1
Return: n

Enquiry: Hello, is MIC of the following compound strictly smaller than 2 µg/mL? CCCCCCNc1cc[n+](CCCCCCCCCC[n+]2ccc(NCCCCCC)cc2)cc1
Return: y

Enquiry: Hello, is MIC of the following compound strictly smaller than 2 µg/mL? Clc1ccc(Nc2cc[n+](CCCC[n+]3ccc(Nc4ccc(Cl)cc4)cc3)cc2)cc1 [Example 76C]
Return: n
